Attribution: ChEMBL document CHEMBL1138152

Can you tell me pIC50 for the items I'm about to list?
- target_under_test: Delta-type opioid receptor (Mus musculus, UniProt P32300)
- Sequence (P32300 whole entry): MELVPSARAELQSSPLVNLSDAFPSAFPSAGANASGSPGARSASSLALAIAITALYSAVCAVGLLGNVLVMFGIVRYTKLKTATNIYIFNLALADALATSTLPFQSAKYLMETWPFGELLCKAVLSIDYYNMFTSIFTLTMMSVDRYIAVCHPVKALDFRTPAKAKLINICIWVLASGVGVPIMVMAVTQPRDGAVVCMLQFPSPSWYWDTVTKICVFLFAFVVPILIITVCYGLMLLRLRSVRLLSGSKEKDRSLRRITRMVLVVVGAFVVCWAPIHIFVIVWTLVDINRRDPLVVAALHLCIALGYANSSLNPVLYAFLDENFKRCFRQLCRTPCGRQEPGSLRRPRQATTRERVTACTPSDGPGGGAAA
- measurement_notes: Agonist activity at delta opioid receptor by inhibition of muscle contraction in electrically stimulated isolated mouse vas deferens
One number for each entry, as −log10 of the molar value.

CCCC[C@@H](C(=O)N[C@@H](CC(=O)O)C(=O)N[C@@H](Cc1ccccc1)C(=O)NNC(=O)[C@H](Cc1ccccc1)NC(=O)CNC(=O)[C@@H](C)NC(=O)[C@@H](N)Cc1ccc(O)cc1)N(C)C(=O)[C@@H](Cc1c[nH]c2ccccc12)NC(=O)OC(C)(C)C    7.38
CCCC[C@H](NC(=O)[C@H](N)Cc1c[nH]c2ccccc12)C(=O)N[C@@H](CC(=O)O)C(=O)N[C@@H](Cc1ccccc1)C(=O)NNC(=O)[C@H](Cc1ccccc1)NC(=O)CNC(=O)[C@@H](C)NC(=O)[C@@H](N)Cc1ccc(O)cc1    7.59

For every listed record, write down its pIC50.
1. CCCC[C@H](NC(=O)[C@@H](Cc1c[nH]c2ccccc12)NC(=O)OC1C2CC3CC(C2)CC1C3)C(=O)N[C@@H](CC(=O)O)C(=O)N[C@@H](Cc1ccccc1)C(=O)NNC(=O)[C@H](Cc1ccccc1)NC(=O)CNC(=O)[C@@H](C)NC(=O)[C@@H](N)Cc1ccc(O)cc1 (stereo not given in full)
2. CCCC[C@@H](C(=O)N[C@@H](CC(=O)O)C(=O)N[C@@H](Cc1ccccc1)C(N)=O)N(C)C(=O)[C@H](Cc1c[nH]c2ccccc12)NC(=O)CNC(=O)[C@@H](Cc1ccccc1)NC(=O)[C@H](Cc1ccc(O)cc1)NC(=O)[C@@H](N)CC(=O)O

Response given:
[7.08, 7.54]

For every listed record, write down its pIC50.
1. CCCC[C@H](NC(=O)[C@H](Cc1c[nH]c2ccccc12)NC(C)=O)C(=O)N[C@@H](CC(=O)O)C(=O)N(C)[C@@H](Cc1ccccc1)C(=O)NNC(=O)[C@H](Cc1ccccc1)NC(=O)CNC(=O)[C@@H](C)NC(=O)[C@@H](N)Cc1ccc(O)cc1
2. CCCC[C@H](NC(=O)[C@H](Cc1c[nH]c2ccccc12)NC(C)=O)C(=O)N[C@@H](CC(=O)O)C(=O)N[C@@H](Cc1ccccc1)C(=O)NNC(=O)[C@H](Cc1ccccc1)NC(=O)CNC(=O)[C@@H](C)NC(=O)[C@@H](N)Cc1ccc(O)cc1

Response given:
1: 8.29; 2: 7.44

----------
- target_under_test: Delta-type opioid receptor (Homo sapiens)
- Sequence (P41143 whole entry): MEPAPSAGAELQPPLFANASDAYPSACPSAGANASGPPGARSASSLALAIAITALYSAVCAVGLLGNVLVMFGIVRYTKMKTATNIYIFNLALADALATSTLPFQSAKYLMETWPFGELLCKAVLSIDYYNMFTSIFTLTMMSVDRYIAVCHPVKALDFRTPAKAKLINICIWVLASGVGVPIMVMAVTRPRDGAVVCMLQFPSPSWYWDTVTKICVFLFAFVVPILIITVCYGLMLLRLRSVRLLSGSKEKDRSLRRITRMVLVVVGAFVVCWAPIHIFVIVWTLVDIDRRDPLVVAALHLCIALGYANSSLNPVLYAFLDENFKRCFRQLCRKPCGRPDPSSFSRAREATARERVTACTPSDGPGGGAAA
- measurement_notes: Inhibition of [35S]GTP-gamma-S binding to human delta opioid receptor expressed in CHO cells
- Type: functional, cell-based
measured_property: EC50 (µM)
Numbers only, in µM.

CCCC[C@@H](C(=O)N[C@@H](CC(=O)O)C(=O)N[C@@H](Cc1ccccc1)C(=O)NNC(=O)[C@H](Cc1ccccc1)NC(=O)CNC(=O)[C@@H](C)NC(=O)[C@@H](N)Cc1ccc(O)cc1)N(C)C(=O)[C@@H](Cc1c[nH]c2ccccc12)NC(=O)OC(C)(C)C    0.026

For every listed record, write down its EC50.
1. CCCC[C@H](NC(=O)[C@H](Cc1c[nH]c2ccccc12)NC(=O)OC(C)(C)C)C(=O)N[C@@H](CC(=O)O)C(=O)N[C@@H](Cc1ccccc1)C(=O)NNC(=O)[C@H](Cc1ccccc1)NC(=O)CNC(=O)[C@@H](C)NC(=O)[C@@H](N)Cc1ccc(O)cc1
2. CCCC[C@H](NC(=O)[C@@H](Cc1c[nH]c2ccccc12)NC(=O)OC1C2CC3CC(C2)CC1C3)C(=O)N[C@@H](CC(=O)O)C(=O)N[C@@H](Cc1ccccc1)C(=O)NNC(=O)[C@H](Cc1ccccc1)NC(=O)CNC(=O)[C@@H](C)NC(=O)[C@@H](N)Cc1ccc(O)cc1 (some centres undefined)
3. CCCC[C@H](NC(=O)[C@@H](Cc1c[nH]c2ccccc12)NC(=O)OC(C)(C)C)C(=O)N[C@@H](CC(=O)O)C(=O)N[C@@H](Cc1ccccc1)C(=O)NNC(=O)[C@H](Cc1ccccc1)NC(=O)CNC(=O)[C@@H](C)NC(=O)[C@@H](N)Cc1ccc(O)cc1

Response given:
1. 0.027
2. 0.0056
3. 0.074
